Reference for the values: patent US8841291B2

Target: Collagenase-3 (MMP-13) (Homo sapiens)
Experiment: Collagenase-3 (MMP-13) inhibitory activity, fluorogenic peptide substrate assay
Format: biochemical
Settings: recombinant pro-collagenase-3 activated with 1 mM APMA; read-out: MMP13 IC50
Measure: IC50 (nM)

The following compounds have reported results that may help.
Compound	IC50, nM
O=C(NO)[C@H]1CCCCCN1S(=O)(=O)c1ccc2ccccc2c1	8.7
CC(C)(C)[C@@H](NS(=O)(=O)c1ccc2ncccc2c1)C(=O)NO	225
O=C(NO)C(NS(=O)(=O)c1ccc2ccccc2c1)C1CCOCC1 (centres unmarked)	50.9
C#CC[C@H](C(=O)NO)N(CC=C)S(=O)(=O)c1ccc2ccccc2c1	3.5
O=C(NO)[C@H]1CCCN1S(=O)(=O)c1ccc2ccccc2c1 (stereo in doubt)	293

I: COc1c(S(=O)(=O)N(CCC(C)C)[C@@H](C(=O)NO)C(C)C)ccc2ccccc12
II: CC(C)CCN([C@@H](C(=O)NO)C(C)C)S(=O)(=O)c1ccc2ccc(N)cc2c1
Task: Of the pair I and II , name the member with the lesser recorded IC50. Pick one and reply with its label.
Output: I
